# Test system: lipase
# test.method.notes: Lipase/lipolysis assay (EnzChek Lipase Substrate, quenched BODIPY-fatty acid conjugate) on stored human milk; note: test concentration or dose not given here
// bucketize Lipase (RFU): range A (below 800 RFU), range B (800 RFU to below 1000 RFU), range C (1000 RFU or more)

| molecule | group |
| --- | --- |
| CC1(C)C[C@@H](O)[C@]2(C)CC[C@]3(C)C(=CC[C@@H]4[C@@]5(C)CC[C@H](O)[C@](C)(CO)[C@@H]5CC[C@]43C)[C@@H]2C1 | range C |
| O=c1c(O[C@@H]2O[C@H](CO[C@@H]3O[C@H](CO)[C@@H](O)[C@H](O)[C@H]3O)[C@@H](O)[C@H](O)[C@H]2O)c(-c2ccc(O)cc2)oc2cc(O)cc(O)c12 [Kaempferol 3-O-gentiobioside] | range C |
| CC(=O)c1ccc(O)cc1 [4-Hydroxyacetophenone] | range A |
| CC(C)(O)C1Cc2cc3cc(-c4cc(O)cc(O)c4)oc3cc2O1 (stereo not drawn) | range B |
| COc1cc(CCCO)ccc1O [Dihydroconiferyl alcohol] | range C |
| CC1(C)[C@H](C(=O)O)N2C(=O)C[C@H]2S1(=O)=O | range A |
| C=C1C[C@@]23CC[C@H]4[C@@](C)(CCC[C@@]4(C)C(=O)O)[C@@H]2CC[C@]1(O[C@@H]1O[C@H](CO)[C@@H](O)[C@H](O)[C@H]1O[C@@H]1O[C@H](CO)[C@@H](O)[C@H](O)[C@H]1O)C3 [Steviolbioside] | range C |
| OC1C(O)C(O)C(O)C(O)C1O (stereo not drawn) | range B |
| OC[C@@H](O)[C@H](O)[C@H](O)[C@@H](O)CO [Dulcitol] | range A |
| OC[C@@H](O)[C@@H](O[C@H]1O[C@H](CO)[C@@H](O)[C@H](O)[C@H]1O)[C@H](O)[C@@H](O)CO | range B |
| C[C@H](CC(=O)C[C@@H](C)[C@H]1C[C@H](O)[C@@]2(C)C3=C(C(=O)C[C@]12C)[C@@]1(C)CCC(=O)C(C)(C)[C@@H]1C[C@@H]3O)C(=O)O | range A |
| CC(=O)C=Cc1ccccc1 | range C |

====

# System: lipase
# test.method.notes: Lipase/lipolysis assay (EnzChek Lipase Substrate, quenched BODIPY-fatty acid conjugate) on stored human milk; note: test concentration or dose not given here
Label Criterion met when Lipase (RFU) is strictly below 1000 RFU; otherwise label Criterion not met.

| compound | group |
| --- | --- |
| COC(=O)[C@@]1(C)CC[C@]2(C(=O)O)CC[C@]3(C)C(=CC[C@@H]4[C@@]5(C)C[C@H](O)[C@H](O[C@@H]6OC[C@@H](O[C@@H]7O[C@H](CO)[C@@H](O)[C@H](O)[C@H]7O)[C@H](O)[C@H]6O)[C@@](C)(CO)[C@@H]5CC[C@]43C)[C@@H]2C1 [Esculentoside A] | Criterion met |
| OC[C@@]12OC[C@@H](O1)[C@@H](O)[C@@H](O)[C@@H]2O | Criterion not met |
| COc1c(O)cc2oc(-c3ccc(O)cc3)cc(=O)c2c1O | Criterion met |
| C[C@H](O)CO [(S)-(+)-1,2-Propanediol] | Criterion not met |
| CC(=O)N[C@@H](C)C(=O)O | Criterion not met |
| NC(Cc1ccccc1O)C(=O)O (racemic) | Criterion met |
| O=C(O)[C@H]1O[C@H](O[C@@H]2[C@H](O)[C@@H](O)[C@@H](O[C@@H]3[C@H](O)[C@@H](O)C(O)O[C@@H]3C(=O)O)O[C@@H]2C(=O)O)[C@H](O)[C@@H](O)[C@H]1O (some centres unmarked) | Criterion met |
| COc1cc2ccc(=O)oc2c2ccoc12 | Criterion met |
| CC(C)=CCC[C@](C)(O[C@@H]1O[C@H](CO[C@@H]2O[C@H](CO)[C@@H](O)[C@H](O)[C@H]2O)[C@@H](O)[C@H](O)[C@H]1O)[C@H]1CC[C@]2(C)[C@@H]1[C@H](O)C[C@@H]1[C@@]3(C)CC[C@H](O[C@@H]4O[C@H](CO)[C@@H](O)[C@H](O)[C@H]4O[C@@H]4O[C@H](CO)[C@@H](O)[C@H](O)[C@H]4O[C@@H]4OC[C@@H](O)[C@H](O)[C@H]4O)C(C)(C)[C@@H]3CC[C@]12C [Notoginsenoside Fa] | Criterion not met |
| CC(C)CCC[C@@H](C)[C@H]1CC[C@H]2C3=C(CC[C@]12C)[C@@]1(C)CC[C@H](O)CC1=CC3 [8-Dehydrocholesterol] | Criterion met |
| CC(C)=CCc1c(O)c(CC=C(C)C)c2oc3c(O)cccc3c(=O)c2c1O | Criterion not met |
| C[Se]C[C@H](N)C(=O)O | Criterion met |
| O=C1C=C2C(=CCOC2O)O1 (centres unmarked) | Criterion not met |
| Cc1cc(O)c(C)c2c1O[C@](C)(CCC[C@H](C)CCC[C@H](C)CCCC(C)C)CC2 (relative stereo) [(rel)-β-Tocopherol] | Criterion not met |

====

# Tested on: lipase
# test.method.notes: Lipase/lipolysis assay (EnzChek Lipase Substrate, quenched BODIPY-fatty acid conjugate) on stored human milk; note: test concentration or dose not given here
Quick list: Lipase (RFU) per entry.

| molecule | assay.target | Lipase (RFU) |
| --- | --- | --- |
| CCCC=C1OC(=O)c2ccccc21 [3-Butylidenephthalide] | lipase | 952.6722 RFU |
| O=c1cc(-c2ccc(O)c(O)c2)oc2c([C@@H]3O[C@H](CO)[C@@H](O)[C@H](O)[C@H]3O)c(O)cc(O)c12 [Orientin] | lipase | 715.9231 RFU |
| O=C(/C=C/c1ccc(O)cc1)CC(=O)/C=C/c1ccc(O)cc1 [Bisdemethoxycucurmin] | lipase | 967.3982 RFU |
| Oc1cc(O)c2c(c1)O[C@H](c1cc(O)c(O)c(O)c1)[C@@H](O)C2 [(+)-Gallocatechin] | lipase | 1096.904 RFU |
| Cc1cc(O)cc2c1O[C@](C)(CCC[C@H](C)CCC[C@H](C)CCCC(C)C)CC2 [Delta-Tocopherol] | lipase | 1328.881 RFU |
| CC(CC(=O)CC(C)(O)C1CC(=O)C2(C)C3=C(C(=O)CC12C)C1(C)CCC(=O)C(C)(C)C1CC3O)C(=O)O (stereo not shown) [Ganoderic acid N] | lipase | 866.924 RFU |
| OC[C@H]1O[C@H](OC[C@H]2OC(O)[C@H](O)[C@@H](O)[C@@H]2O)[C@H](O)[C@@H](O)[C@@H]1O (stereo partly shown) [Isomaltose] | lipase | 1074.051 RFU |

====

# Tested on: lipase
# test.method.notes: Lipase/lipolysis assay (EnzChek Lipase Substrate, quenched BODIPY-fatty acid conjugate) on stored human milk; note: test concentration or dose not given here
Where a SMILES comes first, the peptide text is derived from it.
Quick list: Lipase (RFU) per entry.

| molecule | Lipase (RFU) |
| --- | --- |
| CCCCCCCCCCCCCC(=O)O[C@H](CC(=O)[O-])C[N+](C)(C)C | 951.8251 RFU |
| C=C1CC/C=C(\C)CC[C@@H]2[C@@H]1CC2(C)C | 881.1948 RFU |
| COc1cc2c(=O)c(-c3ccc(O)cc3)coc2cc1O[C@@H]1O[C@H](CO)[C@@H](O)[C@H](O)[C@H]1O | 799.4163 RFU |
| O=P([O-])([O-])O[C@H]1O[C@H](CO)[C@H](O)[C@H](O)[C@H]1O.[K+].[K+] [Galactose 1-phosphate Potassium salt] | 1112.021 RFU |
| C[N+](C)(C)CCCC[C@H](N)C(=O)O [Nε,Nε,Nε-Trimethyllysine (chloride)] | 1143.924 RFU |
| COc1cc2oc3cc(O)c(OC)c(CC=C(C)C)c3c(=O)c2c(O)c1CC=C(C)C | 828.6091 RFU |
| C=C(C[C@@H](O)[C@](C)(O)[C@H]1CC[C@@]2(O)C3=CC(=O)[C@@H]4C[C@@H](O)[C@@H](O)C[C@]4(C)[C@H]3CC[C@]12C)C(C)C | 1175.382 RFU |
| O=C(O)C(F)(F)F.O=C1N[C@@H](Cc2cnc[nH]2)C(=O)N2CCC[C@@H]12 [Cyclo(his-pro) (TFA)] | 956.1787 RFU |
| NCC(=O)N[C@@H](CC(=O)O)C(=O)O [Glycyl-L-Aspartic] (H-Gly-Asp-OH) | 903.5873 RFU |
| OC[C@@H](O)[C@@H](O)CO | 838.849 RFU |
| CC1(C)[C@@H](O)CC[C@]2(C)[C@H]3C(=O)C=C4[C@@H]5C[C@@](C)(C(=O)O)CC[C@]5(C)CC[C@@]4(C)[C@]3(C)CC[C@@H]12 | 736.3555 RFU |
| N[C@@H](CCC(=O)N[C@@H](Cc1ccccc1)C(=O)O)C(=O)O | 1077.051 RFU |
| COc1cc(-c2[o+]c3cc(O)cc(O)c3cc2O)cc(O)c1O.[Cl-] [Petunidin (chloride)] | 1018.887 RFU |
| CC(=O)c1ccc2c(c1)C=CC(C)(C)O2 | 1050.951 RFU |
| CC(C)=CCC/C(C)=C/CC/C(C)=C/CC/C(C)=C/CC1=C(C)C(=O)c2ccccc2C1=O | 987.2266 RFU |
| C[C@]12CC[C@H]3[C@@H](CC=C4C[C@@H](O)CC[C@@]43C)[C@@H]1CC[C@@H]2C(=O)CO [21-Hydroxypregnenolone] | 955.7541 RFU |
| O=C1C[C@@H](c2ccc(O[C@@H]3O[C@H](CO)[C@@H](O)[C@H](O)[C@H]3O)cc2)Oc2cc(O)cc(O)c21 | 1121.626 RFU |
| COc1cc(O)c(C(=O)/C=C/c2ccccc2)c(O)c1 | 969.4657 RFU |
| C[C@@H]1O[C@@H](OC[C@H]2O[C@@H](Oc3c(-c4ccc(O)cc4)oc4cc(O)cc(O)c4c3=O)[C@H](O[C@@H]3OC[C@@H](O)[C@H](O)[C@H]3O)[C@@H](O)[C@@H]2O)[C@H](O)[C@H](O)[C@H]1O [Camelliaside B] | 927.4235 RFU |
| C[N+]1(C)CCC[C@H]1C(=O)[O-].Cl [Stachydrine hydrochloride] | 915.6673 RFU |
| NCC[C@H](N)C(=O)O | 650.1144 RFU |
| NCCO | 533.8 RFU |
| O=C(C=Cc1ccc(O)c(O)c1)OC1CC(C(=O)O)=CC(O)C1O (stereo not drawn) | 1072.132 RFU |
| CCSCCC(N)C(=O)O (racemic) | 921.5463 RFU |
| Cl.Cl.NCCc1c[nH]cn1 [Histamine (dihydrochloride)] | 1022.007 RFU |
| Nc1nc(=O)c2c([nH]1)NCC(CNc1ccc(C(=O)N[C@@H](CCC(=O)O)C(=O)O)cc1)N2C=O (mixture of isomers) | 949.4803 RFU |
| CCN(Cc1cccc(S(=O)(=O)[O-])c1)c1ccc(C(=C2C=CC(=[N+](CC)Cc3cccc(S(=O)(=O)[O-])c3)C=C2)c2ccc(O)cc2S(=O)(=O)[O-])cc1.[Na+].[Na+] | 896.2144 RFU |
| O=C(O[C@@H]1Cc2c(O)cc(O)cc2O[C@@H]1c1ccc(O)c(O)c1)c1cc(O)c(O)c(O)c1 [(−)-Epicatechin gallate] | 982.8268 RFU |
| COc1cc(-c2cc(=O)c3c(O)c(OC)c(O)cc3o2)ccc1O | 614.7008 RFU |
| CCCCCCCCCC(C)=O | 1119.854 RFU |
